Target: hTRPML1-nLuc (Homo sapiens, UniProt Q9GZU1)
Sequence (Q9GZU1 whole entry): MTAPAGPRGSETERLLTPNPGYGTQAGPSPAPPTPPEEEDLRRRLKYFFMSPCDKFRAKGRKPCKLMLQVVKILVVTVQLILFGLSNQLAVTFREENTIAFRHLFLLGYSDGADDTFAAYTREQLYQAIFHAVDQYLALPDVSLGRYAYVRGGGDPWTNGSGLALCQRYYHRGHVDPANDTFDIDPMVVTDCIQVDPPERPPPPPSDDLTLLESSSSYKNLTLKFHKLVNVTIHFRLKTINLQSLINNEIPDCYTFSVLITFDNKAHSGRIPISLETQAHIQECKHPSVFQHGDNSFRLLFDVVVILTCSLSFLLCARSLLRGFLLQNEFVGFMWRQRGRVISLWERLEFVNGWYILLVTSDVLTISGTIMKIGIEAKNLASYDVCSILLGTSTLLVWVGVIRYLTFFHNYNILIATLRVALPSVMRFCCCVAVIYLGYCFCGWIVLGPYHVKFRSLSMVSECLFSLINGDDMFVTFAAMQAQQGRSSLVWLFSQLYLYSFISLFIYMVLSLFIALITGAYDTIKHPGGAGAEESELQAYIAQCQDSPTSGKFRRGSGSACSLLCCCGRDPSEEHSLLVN
Assay: In-cell BRET competitive displacement of MRC087
Assay type: binding
Quick list: Kd per entry.
Just the number in µM, nothing appended.

Q: Please look at this compound and report its Kd: CC1CC(C)(C)N(C(=O)CN2C(=O)c3ccccc3C2=O)c2ccccc21 (centres unmarked)
Ans: 19.8

Q: Please look at this compound and report its Kd: `COc1ccccc1N1CCN(c2ccccc2NS(=O)(=O)c2ccccc2)CC1`
Ans: 2.8

====

Quick list: pKd per entry.
Target: UniProt Q9GZU1
Test: In-cell BRET kinetics of competitive binding
Lab note — pKd values are minus log10 of concentrations in M.

CC1CC(C)(C)N(C(=O)CN2C(=O)c3ccccc3C2=O)c2ccccc21 (centres unmarked) [compound 1]
4.43

Here is the next item to consider.
Q: Please look at this compound and report its pKd: COc1ccccc1N1CCN(c2ccccc2NS(=O)(=O)c2ccccc2)CC1 [compound 8]
Ans: 6.00
